Listed compounds paired with reported EC50
experimental system: CFTR ΔF508 (Homo sapiens, UniProt P13569, DEL508-508)
Construct: bronchial epithelial cells isolated from CF patients homozygous for the CFTR ΔF508 mutation; McGill University; Asterand; University of North Carolina hAEC-CF; host or cells: primary human bronchial epithelial cells from CF patients homozygous for ΔF508, differentiated at air-liquid interface
Sequence (P13569 with tags, fused parts or gaps DEL508-508): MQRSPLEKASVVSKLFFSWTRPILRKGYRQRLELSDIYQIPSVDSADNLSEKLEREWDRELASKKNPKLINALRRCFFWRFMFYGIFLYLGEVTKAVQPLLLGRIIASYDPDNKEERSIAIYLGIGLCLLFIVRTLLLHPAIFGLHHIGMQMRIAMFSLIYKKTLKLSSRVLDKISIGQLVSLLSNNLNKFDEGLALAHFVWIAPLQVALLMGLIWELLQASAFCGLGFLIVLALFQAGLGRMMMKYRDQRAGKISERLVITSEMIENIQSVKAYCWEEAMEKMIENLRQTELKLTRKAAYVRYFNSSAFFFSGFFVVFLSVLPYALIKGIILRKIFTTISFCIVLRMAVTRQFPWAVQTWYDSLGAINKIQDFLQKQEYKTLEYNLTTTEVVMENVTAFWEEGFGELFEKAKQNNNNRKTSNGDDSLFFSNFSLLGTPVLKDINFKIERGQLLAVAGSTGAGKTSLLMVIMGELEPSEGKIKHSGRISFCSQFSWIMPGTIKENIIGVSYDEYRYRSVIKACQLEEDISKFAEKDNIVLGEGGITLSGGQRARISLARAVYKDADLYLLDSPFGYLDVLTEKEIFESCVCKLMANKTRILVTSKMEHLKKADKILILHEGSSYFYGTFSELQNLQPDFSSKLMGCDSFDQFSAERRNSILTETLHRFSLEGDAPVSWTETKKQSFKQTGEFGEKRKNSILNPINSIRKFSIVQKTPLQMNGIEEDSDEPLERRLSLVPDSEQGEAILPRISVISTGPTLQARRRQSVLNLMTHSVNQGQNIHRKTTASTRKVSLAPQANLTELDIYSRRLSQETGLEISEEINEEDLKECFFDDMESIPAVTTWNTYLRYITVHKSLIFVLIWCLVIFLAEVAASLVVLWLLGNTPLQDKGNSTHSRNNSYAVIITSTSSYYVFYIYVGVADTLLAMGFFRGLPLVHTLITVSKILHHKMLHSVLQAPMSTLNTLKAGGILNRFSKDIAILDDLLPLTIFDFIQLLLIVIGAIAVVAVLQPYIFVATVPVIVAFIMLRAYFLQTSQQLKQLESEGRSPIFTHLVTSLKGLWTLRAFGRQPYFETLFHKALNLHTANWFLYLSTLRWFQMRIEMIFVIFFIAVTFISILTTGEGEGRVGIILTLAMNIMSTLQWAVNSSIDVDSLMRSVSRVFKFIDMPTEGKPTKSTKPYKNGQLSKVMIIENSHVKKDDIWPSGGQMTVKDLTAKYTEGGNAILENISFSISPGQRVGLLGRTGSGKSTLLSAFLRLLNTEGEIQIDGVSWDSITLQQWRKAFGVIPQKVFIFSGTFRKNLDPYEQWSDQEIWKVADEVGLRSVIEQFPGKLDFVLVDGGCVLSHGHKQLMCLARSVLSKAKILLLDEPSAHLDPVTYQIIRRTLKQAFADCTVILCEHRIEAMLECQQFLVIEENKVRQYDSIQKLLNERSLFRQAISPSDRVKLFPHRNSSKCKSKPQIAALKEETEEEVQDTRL
procedure text: Chronic TECC assay, primary bronchial epithelial cells of CF patients homozygous for CFTR ΔF508 (corrector, co-corrector and potentiator)
Type: cell-based
condition summary: chronic TECC; AUC = full area under the curve upon forskolin stimulation; read-out: EC50 (nM) (AUC**)
property label: EC50 (nM)

compound: COCC1CCN(c2cc(C(=O)NS(C)(=O)=O)nc3c2c(C(C)C)nn3-c2ccc(F)cc2)CC1 [Compound 168]
assay value: 38.2

compound: COC(C)(C1CCN(c2cc(C(=O)NS(C)(=O)=O)nc3c2c(C2CCC2)nn3-c2ccccc2)CC1)C(F)(F)F (stereo not shown) [Compound 242]
assay value: 14

compound: CS(=O)(=O)NC(=O)c1cc(N2CCC(OC3CCCC3)CC2)c2c(C3CCC3)nn(-c3ccccc3)c2n1 [Compound 228]
assay value: 32

compound: CC(=O)N1CCN(C2CCN(c3cc(C(=O)NS(=O)(=O)N(C)C)nc4c3c(C3CCC3)nn4-c3ccc(F)cc3)CC2)CC1 [Compound 493]
assay value: 371

compound: COCCS(=O)(=O)NC(=O)c1cc(N2CCC(N3CCOCC3)CC2)c2c(C3CCC3)nn(-c3ccc(F)cc3)c2n1 [Compound 407]
assay value: 48.9

compound: COC1CCN(C2CCN(c3cc(C(=O)NS(=O)(=O)N(C)C)nc4c3c(C3CCC3)nn4-c3ccc(F)cc3)CC2)CC1 [Compound 381]
assay value: 4100

compound: O=C(NS(=O)(=O)N1CCOCC1)c1cc(N2CCC(N3CCN(C4CC4)CC3)CC2)c2c(C3CCC3)nn(-c3ccccc3)c2n1 [Compound 555]
assay value: 107
